Molecular target: T1, human C5 R885C-mmh (human, UniProt P01031 19-1676)
T1 construct: also called human C5 variant R885C
Assay: SPR, mAb captured via anti-hFc, 37C
reported_metric: kon (M⁻¹ s⁻¹)
// units = M⁻¹ s⁻¹; emit number, no label

Reference set (8 entries):
binder	kon / M⁻¹ s⁻¹
H4H12171P (antibody, human IgG4, V domains shown, Human IgG4 Fc with S108P hinge mutation (H4H)) VH: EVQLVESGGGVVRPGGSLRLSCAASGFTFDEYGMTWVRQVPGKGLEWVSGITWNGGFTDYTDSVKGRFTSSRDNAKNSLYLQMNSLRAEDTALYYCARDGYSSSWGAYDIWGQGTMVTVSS VL: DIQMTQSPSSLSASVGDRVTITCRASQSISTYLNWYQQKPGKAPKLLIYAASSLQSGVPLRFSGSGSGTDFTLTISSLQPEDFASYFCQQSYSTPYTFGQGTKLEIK	477000
H4H12163P (antibody, human IgG4, V domains shown, Human IgG4 Fc with S108P hinge mutation (H4H)) VH: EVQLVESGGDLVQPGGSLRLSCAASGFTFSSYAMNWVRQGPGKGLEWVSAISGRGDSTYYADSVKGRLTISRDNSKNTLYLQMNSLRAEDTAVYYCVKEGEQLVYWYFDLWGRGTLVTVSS VL: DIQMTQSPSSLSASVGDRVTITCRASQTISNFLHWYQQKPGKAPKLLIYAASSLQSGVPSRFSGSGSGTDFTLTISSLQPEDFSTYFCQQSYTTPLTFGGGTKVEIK	566000
H4H12159P (antibody, human IgG4, V domains shown, Human IgG4 Fc with S108P hinge mutation (H4H)) VH: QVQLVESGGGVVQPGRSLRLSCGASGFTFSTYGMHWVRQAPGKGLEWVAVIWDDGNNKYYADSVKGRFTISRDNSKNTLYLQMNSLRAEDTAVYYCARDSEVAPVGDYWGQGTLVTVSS VL: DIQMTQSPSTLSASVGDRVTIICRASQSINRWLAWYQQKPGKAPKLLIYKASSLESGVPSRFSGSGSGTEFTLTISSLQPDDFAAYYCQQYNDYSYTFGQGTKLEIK	561000
H4H12167P (antibody, human IgG4, V domains shown, Human IgG4 Fc with S108P hinge mutation (H4H)) VH: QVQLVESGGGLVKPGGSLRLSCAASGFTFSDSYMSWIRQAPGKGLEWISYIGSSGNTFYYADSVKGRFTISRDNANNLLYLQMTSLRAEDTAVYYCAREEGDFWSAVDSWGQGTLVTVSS VL: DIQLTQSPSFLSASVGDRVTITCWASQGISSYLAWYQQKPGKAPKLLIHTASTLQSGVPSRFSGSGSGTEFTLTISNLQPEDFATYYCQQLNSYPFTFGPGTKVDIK	684000
H4H12175P (antibody, human IgG4, V domains shown, Human IgG4 Fc with S108P hinge mutation (H4H)) VH: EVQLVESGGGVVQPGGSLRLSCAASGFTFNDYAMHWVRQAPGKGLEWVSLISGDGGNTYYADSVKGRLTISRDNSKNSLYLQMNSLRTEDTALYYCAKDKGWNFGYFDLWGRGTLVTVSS VL: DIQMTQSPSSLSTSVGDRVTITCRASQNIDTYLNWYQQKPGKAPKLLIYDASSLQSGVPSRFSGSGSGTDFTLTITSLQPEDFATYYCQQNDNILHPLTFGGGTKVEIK	112000
H4H12170P (antibody, human IgG4, V domains shown, Human IgG4 Fc with S108P hinge mutation (H4H)) VH: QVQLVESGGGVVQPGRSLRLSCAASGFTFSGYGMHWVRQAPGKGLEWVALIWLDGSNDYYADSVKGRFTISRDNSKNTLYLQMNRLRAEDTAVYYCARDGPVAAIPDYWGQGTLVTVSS VL: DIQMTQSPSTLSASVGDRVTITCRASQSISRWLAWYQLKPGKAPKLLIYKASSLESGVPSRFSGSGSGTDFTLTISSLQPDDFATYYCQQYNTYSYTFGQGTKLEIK	424000
H4H11686N (antibody, V domains shown, also called H2M11686N) VH: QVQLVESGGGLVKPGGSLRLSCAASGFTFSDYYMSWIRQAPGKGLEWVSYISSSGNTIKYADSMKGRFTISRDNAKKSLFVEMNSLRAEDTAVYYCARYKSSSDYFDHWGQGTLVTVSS VL: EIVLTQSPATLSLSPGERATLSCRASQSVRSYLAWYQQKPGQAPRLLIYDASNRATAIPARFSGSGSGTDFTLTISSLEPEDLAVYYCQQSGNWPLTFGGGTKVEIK	284000
H4H12169P (antibody, human IgG4, V domains shown, Human IgG4 Fc with S108P hinge mutation (H4H)) VH: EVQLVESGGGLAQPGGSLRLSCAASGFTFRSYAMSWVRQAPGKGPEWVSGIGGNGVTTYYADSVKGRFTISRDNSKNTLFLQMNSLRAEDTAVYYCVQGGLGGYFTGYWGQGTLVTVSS VL: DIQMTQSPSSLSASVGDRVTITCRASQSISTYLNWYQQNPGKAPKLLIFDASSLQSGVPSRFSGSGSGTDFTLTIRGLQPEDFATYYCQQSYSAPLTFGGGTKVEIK	329000

Next:
The value of kon measured for the binder H4H12164P (antibody, human IgG4, V domains shown, Human IgG4 Fc with S108P hinge mutation (H4H)) VH: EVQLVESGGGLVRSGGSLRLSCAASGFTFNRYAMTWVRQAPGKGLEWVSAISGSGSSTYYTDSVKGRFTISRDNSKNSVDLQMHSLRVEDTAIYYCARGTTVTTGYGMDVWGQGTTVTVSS VL: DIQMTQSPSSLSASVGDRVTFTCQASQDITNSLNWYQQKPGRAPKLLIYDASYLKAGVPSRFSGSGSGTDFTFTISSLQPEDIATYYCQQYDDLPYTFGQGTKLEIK turned out to be 177000
